Measured values drawn from the RNAGym collection of RNA variant scans (doi:10.7554/elife.80360) for this set.

Listed next: entries and their corresponding self-cleavage.
B1: Hairpin Ribozyme (parent)
chain: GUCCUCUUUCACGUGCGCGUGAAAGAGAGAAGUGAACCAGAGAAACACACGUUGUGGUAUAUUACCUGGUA

variants of: B1; test: self-cleavage, relative activity (ratio to wild type); higher = more cleavage; co-transcriptional
Measurement type: self-cleavage

> print(dat)
                               sequence.text  value.observed
 1  GUCCUCAUUCACGUGCGCGAGAAAGAGAGAAGUGAACCAGAGAAACACACGUUGUGGUAUAUUACCUGGUA           0.723
 2  GUCCUCUUGCACGUGCGGGUGAAAGAGAGAAGUGAACCAGAGAAACACACGUUGUGGUAUAUUACCUGGUA           0.801
 3  CUCCUCUUUCACGUGCGCGUGAAAGAGAGAAGUGAACCAGAGAAACACACGUUGUGUUAUAUUACCUGGUA          0.0983
 4  GUCCUCUUUCACGUGCGCGUGACCGAGAGAAGUGAACCAGAGAAACACACGUUGUGGUAUAUUACCUGGUA           0.718
 5  GUCCUCUUUCACGCGCGCGUGAAAGAGAGAAGUGAACCAGAGAAACACACGUUGUGCUAUAUUACCUGGUA          0.0473
 6  GUCCUCUUCCACGUGCCCGUGAAAGAGAGAAGUGAACCAGAGAAACACACGUUGUGGUAUAUUACCUGGUA           0.647
 7  GUCCUCUUUCACGUGCGCGUGAAAGAGAGAAGUGAACCAGAGACACACACGGUGUGGUAUAUUACCUGGUA           0.203
 8  GUCCUCUUUCACGUGCGCGUGAAAGAGAGAAGUGAACCGGAGAAACACACGUUGCGGUAUAUUACCUGGUA           0.119
 9  GUCAUCUUUCACGUGCGCGUGAAAGAGAGAAGUGAACCAGAGAAACACACGUUGUGGUAUAUUACGUGGUA           0.193
10  GUCCUCUUUCUCGUGCGCGUGAAAGAGAGAAGUGAACCAGAGAAACACACGGUGUGGUAUAUUACCUGGUA           0.362
11  GUCCUCUUUCACGUGGGCGUGAAAGAGAGAAGUGAACCAGAGAAACACACGUAGUGGUAUAUUACCUGGUA           0.855
12  GUCCUCUUUCACGUGCGCGUGAAAGAGAGAAGUGAACCAGAGAAACACACCUUGUGGUGUAUUACCUGGUA           0.166
13  GUCCUCUUUCACGUGCGCGUGAAAGAGAGAAGUGAACCAGAGAAACACACGUUGAGGUCUAUUACCUGGUA           0.252
14  GUCCUCUUUCACGUGCGCGUGAAUGAGAGAACUGAACCAGAGAAACACACGUUGUGGUAUAUUACCUGGUA           0.114
15  GUCCUCUUUCACGUGCGCGUGAAAGAGAAAAGUGAACCAGAGAAACACACGUUGUGGUAUAUAACCUGGUA           0.124
16  GUCCUCUUUCACGUGCGCGUGAAAGAGAGAUCUGAACCAGAGAAACACACGUUGUGGUAUAUUACCUGGUA           0.165
17  GUCCUCUUUCACGUGCGCGUGAAAGAGAGAAGUGAACCAGAGAAACUCACGGUGUGGUAUAUUACCUGGUA           0.256
18  GUCCUCCUUCACGUGCGCGUGAAAGAGAGAAGUGAACCAGAGAAACGCACGUUGUGGUAUAUUACCUGGUA          0.0534
19  GUCCUCUUUCACGUGCACGUGAAAAAGAGAAGUGAACCAGAGAAACACACGUUGUGGUAUAUUACCUGGUA           0.587
20  GUUCUCUUUCACGUGCGCGUGAAAGAGAGAAGUGAACCAGAGAAACACACGUUGUGCUAUAUUACCUGGUA           0.094
21  GUCCUCUUUCACGUGCGCGUGAAAGAGAGAAGUGAACCAAAGAAACACACCUUGUGGUAUAUUACCUGGUA           0.238
22  GUCCUCUUUCACGUGUGCGUGAAAGAGAGACGUGAACCAGAGAAACACACGUUGUGGUAUAUUACCUGGUA           0.165
23  GUCCUCUUUCACGUGCGCGUUAAAGAGAGAAGUGAACCAGAGAAACACACGUUGUCGUAUAUUACCUGGUA           0.116
24  GUCCUCUUCCACGUGCGCGUGAAAGAGAGAAGUGAACCAGAGAAACACACGUUGUGGUAUAUUACGUGGUA           0.202
25  GUCCUCUUCCACGUGCGCGUGAAAGAGAGAAGUGAACCAGAGAAACACACGUUGUGGUAUCUUACCUGGUA           0.183
26  GUCCUCUUUCACGUGCGCGUGAAAGAGAGACGUGAACCAGAGAAACACACGUUGUGGUAUAUUACCUGCUA          0.0986
27  GUCCUCUUUCACGUGCGCGUGAAAGAGAGAAGUGAACCAGAGAAACACACGUUGUGCUAUAUUCCCUGGUA           0.178
28  GUCCUCCUUCACGUGCGCGUGAAAGAGAGAAGUGAACCAGAGACACACACGUUGUGGUAUAUUACCUGGUA          0.0427
29  GGCCUCUUUCACGUGCGCGUGAAAGAGAGAAGUGAACCAGAGAAACACACGUUUUGGUAUAUUACCUGGUA           0.128
30  GUCCUCCUUCACGUGCGCGUGAAAGAGAGAAGUGAACCAGAGAAACACACGGUGUGGUAUAUUACCUGGUA           0.653
31  GUCCUCUUUCACGUGCGCGCGAAAGAGAGAAGUGAACCAGAGAAACUCACGUUGUGGUAUAUUACCUGGUA           0.161
32  GUCCUCUUUCACGUGCGCGUGCAAGAGAGAAGUGAACCAGAGAAACACACGUUGUGGUAUAUUACCUGAUA           0.448
33  GUCCUCUUUCACGUGCGCGUGAAAGAGAGAAGCGAACCAGAGAAACACACGUUGUGGUCUAUUACCUGGUA           0.198
34  GUCCUCUUUCACGUGCGCGUGAAAGAUAGAAGUGCACCAGAGAAACACACGUUGUGGUAUAUUACCUGGUA            0.44
35  GUCCUCUUUCACGUGCGCGAGAAAGAGAGACGUGAACCAGAGAAACACACGUUGUGGUAUAUUACCUGGUA            0.21
36  GUCCUCUUUCACGUGCGCGUGAAAAAGAGAAGUGAACCAGAGAAACACACGUGGUGGUAUAUUACCUGGUA           0.524
37  GUCCUCUUUCACGUGCGCGUGGAAGAGAGAAGUGAACCAGAGAAACACACGUUGUGGUAUAUUUCCUGGUA           0.173
38  GUCCUCUUUCACGUGCCCGUGAAAGAGAGAAGUGUACCAGAGAAACACACGUUGUGGUAUAUUACCUGGUA            0.44
39  AUCCUCUUUCACGUGCGCGUGAAAGAGAGAAGUGAACCAGAGAGACACACGUUGUGGUAUAUUACCUGGUA           0.167
40  GUCCUCUUUCACGUGCGUGUGAAAGAGAGAAGUGAACCAGAGAAACACAAGUUGUGGUAUAUUACCUGGUA           0.314
41  GUCCUCUUUCACGUGCGCGUGAAAGAGAGAAGUGAACCAGAGGAACACGCGUUGUGGUAUAUUACCUGGUA          0.0811
42  GCCCUCUUUCACGUGCGCGUGAAAGAGAGAAGUGAACCAGAGAAACACACGUAGUGGUAUAUUACCUGGUA           0.322
43  GUCCUCUUUCACGUGCGCGUGAAAGAGAGAAGUGAAGCAGAGAACCACACGUUGUGGUAUAUUACCUGGUA           0.112
44  GUCCUCUUUCACGUGCGCGUGAAAGAGAGCAGUGAACAAGAGAAACACACGUUGUGGUAUAUUACCUGGUA           0.183
45  GUCCUCUUUCACGUGCGCGUUAAAGAGAGAAGUGAACCAGCGAAACACACGUUGUGGUAUAUUACCUGGUA            1.12
46  GUCCUCUUUGACGUGCGCGUGAAAGAGAGAAGUGAACCAGAGCAACACACGUUGUGGUAUAUUACCUGGUA           0.128
47  GUCAUCUUUCACGUGCGCGUGAAAGAGAGAAGUCAACCAGAGAAACACACGUUGUGGUAUAUUACCUGGUA           0.676
48  GUCCUCUUUCACGUGCGCGUGAAAGAGAGAAGUGGACCAGAGAAACACACGUUGUGGUAUAUUACCUGGUU           0.837
49  GUCGUCUUUCACGUGCGCGUGAAAGAGAGAAGUGAACCAGAGAAACACACGUUGUGGUAUAUAACCUGGUA           0.252
50  GUCCUCUUUCACGUGCGCGUGAAAUAGUGAAGUGAACCAGAGAAACACACGUUGUGGUAUAUUACCUGGUA           0.509
51  GUCCUCUUUCACGUGCGCGUGUAAGAGAGAAGUGAACCAGAGAAACCCACGUUGUGGUAUAUUACCUGGUA           0.345
52  GUCCUCUUUCACGUGCGCGUGAAAGAGAGAAGUGAACCAGAGAAACCCACGUUGUGGUAUAUUAACUGGUA           0.282
